Sourced from patent US8569267B2

Measured IC50 of individual entries
# test-target: human Dopamine D2L receptor (Homo sapiens, UniProt P14416)
# Construct: expressed in transfected cells; host or cells: CHO cells
# Sequence (P14416 whole entry): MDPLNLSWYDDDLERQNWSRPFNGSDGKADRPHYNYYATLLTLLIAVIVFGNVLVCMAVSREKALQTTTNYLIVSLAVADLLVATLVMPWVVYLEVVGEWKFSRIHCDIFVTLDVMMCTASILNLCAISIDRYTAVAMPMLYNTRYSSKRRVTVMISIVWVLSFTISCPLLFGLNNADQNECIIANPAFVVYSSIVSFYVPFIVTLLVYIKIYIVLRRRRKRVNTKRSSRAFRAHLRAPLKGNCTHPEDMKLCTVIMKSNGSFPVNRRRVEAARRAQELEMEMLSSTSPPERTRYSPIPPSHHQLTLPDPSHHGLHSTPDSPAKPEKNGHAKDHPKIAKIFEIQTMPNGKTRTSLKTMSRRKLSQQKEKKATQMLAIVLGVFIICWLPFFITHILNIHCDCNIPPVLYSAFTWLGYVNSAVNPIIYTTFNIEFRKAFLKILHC
# assay-summary: In vitro binding affinity for human D2L receptor ([3H]Spiperone binding)
# test-settings: human D2L receptor-transfected CHO cell membranes, read-out: D2L pIC50 (converted)
reported-metric: IC50

{"compound": "OCC1CCCCN1CC1CC2c3ccccc3Cc3ccc(F)cc3C2O1 (mixture of isomers)", "test-target": "human Dopamine D2L receptor (Homo sapiens, UniProt P14416)", "reported-metric": "IC50", "result": "0.0813 µM"}
{"compound": "O=C(NC1CCN(CC2CC3c4ccccc4Cc4ccc(F)cc4C3O2)CC1)c1cccc(C(F)(F)F)c1 (stereo not shown)", "test-target": "human Dopamine D2L receptor (Homo sapiens, UniProt P14416)", "reported-metric": "IC50", "result": "0.0148 µM"}
{"compound": "COC(=O)NC1CCN(CC2CC3c4ccccc4Cc4ccc(F)cc4C3O2)CC1 (stereo not shown)", "test-target": "human Dopamine D2L receptor (Homo sapiens, UniProt P14416)", "reported-metric": "IC50", "result": "0.00794 µM"}
{"compound": "Fc1ccc(OC2CCN(CC3CC4c5ccccc5Cc5ccc(F)cc5C4O3)C2)cc1 (mixture of isomers)", "test-target": "human Dopamine D2L receptor (Homo sapiens, UniProt P14416)", "reported-metric": "IC50", "result": "0.0219 µM"}
{"compound": "CCOC(=O)CNC(=O)N1CCN(CC2CC3c4ccccc4Cc4ccc(F)cc4C3O2)CC1 (stereo not shown)", "test-target": "human Dopamine D2L receptor (Homo sapiens, UniProt P14416)", "reported-metric": "IC50", "result": "0.0437 µM"}
{"compound": "C=CC1(O)CCN(CC2CC3c4ccccc4Cc4ccc(F)cc4C3O2)C1 (stereo not shown)", "test-target": "human Dopamine D2L receptor (Homo sapiens, UniProt P14416)", "reported-metric": "IC50", "result": "0.00447 µM"}
{"compound": "Fc1ccc2c(c1)C1OC(CN3CCN(c4ccccn4)CC3)CC1c1ccccc1C2 (stereo not shown)", "test-target": "human Dopamine D2L receptor (Homo sapiens, UniProt P14416)", "reported-metric": "IC50", "result": "0.0155 µM"}
{"compound": "O=C(NCCCn1ccnc1)C1CCN(CC2CC3c4ccccc4Cc4ccc(F)cc4C3O2)CC1 (stereo not shown)", "test-target": "human Dopamine D2L receptor (Homo sapiens, UniProt P14416)", "reported-metric": "IC50", "result": "0.0372 µM"}
{"compound": "CC(C)(C)NC(=O)C1CCN(CC2CC3c4ccccc4Cc4ccc(F)cc4C3O2)CC1 (stereo not shown)", "test-target": "human Dopamine D2L receptor (Homo sapiens, UniProt P14416)", "reported-metric": "IC50", "result": "0.0132 µM"}
{"compound": "O=C(NC1CCN(CC2CC3c4ccccc4Cc4ccc(F)cc4C3O2)CC1)c1cccc(F)c1 (stereo not shown)", "test-target": "human Dopamine D2L receptor (Homo sapiens, UniProt P14416)", "reported-metric": "IC50", "result": "0.00186 µM"}
{"compound": "O=C(OC1CCN(CC2CC3c4ccccc4Cc4ccc(F)cc4C3O2)C1)C1CCCC1 (mixture of isomers)", "test-target": "human Dopamine D2L receptor (Homo sapiens, UniProt P14416)", "reported-metric": "IC50", "result": "0.00389 µM"}
{"compound": "O=C(NCCN1CCOCC1)C1CCN(CC2CC3c4ccccc4Cc4ccc(F)cc4C3O2)CC1 (stereo not shown)", "test-target": "human Dopamine D2L receptor (Homo sapiens, UniProt P14416)", "reported-metric": "IC50", "result": "0.0575 µM"}
{"compound": "CCOC(=O)C1CCN(C[C@H]2C[C@@H]3c4ccccc4Cc4ccc(F)cc4[C@@H]3O2)CC1", "test-target": "human Dopamine D2L receptor (Homo sapiens, UniProt P14416)", "reported-metric": "IC50", "result": "0.00363 µM"}
{"compound": "COc1ccccc1N1CCN(C(=O)C2CCN(CC3CC4c5ccccc5Cc5ccc(F)cc5C4O3)CC2)CC1 (stereo not shown)", "test-target": "human Dopamine D2L receptor (Homo sapiens, UniProt P14416)", "reported-metric": "IC50", "result": "0.0166 µM"}
{"compound": "Fc1ccc2c(c1)C1OC(CN3CCN(C(=S)NCc4ccccc4)CC3)CC1c1ccccc1C2 (stereo not shown)", "test-target": "human Dopamine D2L receptor (Homo sapiens, UniProt P14416)", "reported-metric": "IC50", "result": "0.0501 µM"}
{"compound": "Fc1ccc2c(c1)C1OC(CN3CCN(Cc4cnc(-c5ccccc5)[nH]4)CC3)CC1c1ccccc1C2 (stereo not shown)", "test-target": "human Dopamine D2L receptor (Homo sapiens, UniProt P14416)", "reported-metric": "IC50", "result": "0.00851 µM"}
{"compound": "O=C(NC1CCCCC1)OCC1CCN(CC2CC3c4ccccc4Cc4ccc(F)cc4C3O2)C1 (mixture of isomers)", "test-target": "human Dopamine D2L receptor (Homo sapiens, UniProt P14416)", "reported-metric": "IC50", "result": "0.00724 µM"}
{"compound": "Cc1onc(-c2ccccc2Cl)c1C(=O)NC1CCN(CC2CC3c4ccccc4Cc4ccc(F)cc4C3O2)CC1 (stereo not shown)", "test-target": "human Dopamine D2L receptor (Homo sapiens, UniProt P14416)", "reported-metric": "IC50", "result": "0.0151 µM"}
{"compound": "OCCCC1CCN(CC2CC3c4ccccc4Cc4ccc(F)cc4C3O2)CC1 (stereo not shown)", "test-target": "human Dopamine D2L receptor (Homo sapiens, UniProt P14416)", "reported-metric": "IC50", "result": "0.00148 µM"}
{"compound": "CC1c2ccccc2C2CC(CN3CCC(O)C3)OC2c2cc(F)ccc21 (mixture of isomers)", "test-target": "human Dopamine D2L receptor (Homo sapiens, UniProt P14416)", "reported-metric": "IC50", "result": "0.0174 µM"}
{"compound": "N#CC1(c2ccccc2)CCN(C(=O)C2CCN(CC3CC4c5ccccc5Cc5ccc(F)cc5C4O3)CC2)CC1 (stereo not shown)", "test-target": "human Dopamine D2L receptor (Homo sapiens, UniProt P14416)", "reported-metric": "IC50", "result": "0.0229 µM"}
{"compound": "O=C(C1CCN(CC2CC3c4ccccc4Cc4ccc(F)cc4C3O2)CC1)N1CC=CC1 (stereo not shown)", "test-target": "human Dopamine D2L receptor (Homo sapiens, UniProt P14416)", "reported-metric": "IC50", "result": "0.0417 µM"}
{"compound": "O=C(NC1CC1)C1CCN(CC2CC3c4ccccc4Cc4ccc(F)cc4C3O2)CC1 (stereo not shown)", "test-target": "human Dopamine D2L receptor (Homo sapiens, UniProt P14416)", "reported-metric": "IC50", "result": "0.0182 µM"}
{"compound": "O=C(NC1CC1)N1CCN(CC2CC3c4ccccc4Cc4ccc(F)cc4C3O2)CC1 (stereo not shown)", "test-target": "human Dopamine D2L receptor (Homo sapiens, UniProt P14416)", "reported-metric": "IC50", "result": "0.0355 µM"}
{"compound": "N#Cc1ccc(NC(=O)NC2CCN(CC3CC4c5ccccc5Cc5ccc(F)cc5C4O3)CC2)cc1 (stereo not shown)", "test-target": "human Dopamine D2L receptor (Homo sapiens, UniProt P14416)", "reported-metric": "IC50", "result": "0.00209 µM"}
{"compound": "O=C(NC1CCCCC1)N1CCN(CC2CC3c4ccccc4Cc4ccc(F)cc4C3O2)CC1 (stereo not shown)", "test-target": "human Dopamine D2L receptor (Homo sapiens, UniProt P14416)", "reported-metric": "IC50", "result": "0.0692 µM"}
{"compound": "O=C(Nc1cccc2cnccc12)C1CCN(CC2CC3c4ccccc4Cc4ccc(F)cc4C3O2)CC1 (stereo not shown)", "test-target": "human Dopamine D2L receptor (Homo sapiens, UniProt P14416)", "reported-metric": "IC50", "result": "0.0112 µM"}
{"compound": "O=C(NCC(O)CO)C1CCN(CC2CC3c4ccccc4Cc4ccc(F)cc4C3O2)CC1 (stereo not shown)", "test-target": "human Dopamine D2L receptor (Homo sapiens, UniProt P14416)", "reported-metric": "IC50", "result": "0.038 µM"}
{"compound": "CSc1ccc(NC(=O)C2CCN(CC3CC4c5ccccc5Cc5ccc(F)cc5C4O3)CC2)cc1 (stereo not shown)", "test-target": "human Dopamine D2L receptor (Homo sapiens, UniProt P14416)", "reported-metric": "IC50", "result": "0.0257 µM"}
{"compound": "COc1ccc(CNC(=O)N2CCN(CC3CC4c5ccccc5Cc5ccc(F)cc5C4O3)CC2)c(OC)c1 (stereo not shown)", "test-target": "human Dopamine D2L receptor (Homo sapiens, UniProt P14416)", "reported-metric": "IC50", "result": "0.00891 µM"}
{"compound": "O=C(Nc1ccc(F)cc1)OCC1CCN(CC2CC3c4ccccc4Cc4ccc(F)cc4C3O2)C1 (stereo not shown)", "test-target": "human Dopamine D2L receptor (Homo sapiens, UniProt P14416)", "reported-metric": "IC50", "result": "0.00562 µM"}
